tested on: HCT-15 colon; test: NCI-60 one-dose screen, 48 h; conditions: 10 µM unless noted
The panel holds about 83,000 compounds, 20% with a hit somewhere; the sample as a whole holds those more often. Activity calls are given as the source filed them. Rule for the calls: active = growth percent below 10; inactive = the rest.
Your answer must be one of the following: active, inactive

Illustrative cases are given below, each with its answer.
Molecule	Class assignment
CCS(=O)(=O)c1ncnc2nc[nH]c12	inactive
O=C1c2cccc3cccc(c23)C(=O)N1Nc1nc(N2CCOCC2)nc(N2CCN(c3ccccc3)CC2)n1	inactive
Brc1ccc2[nH]cc(-c3nc(-c4c[nH]c5ccncc45)cs3)c2c1	active

Ask: Could you please tell me the result logged for `COc1ccc2nc(NC(=O)c3cccnc3Nc3ccc(S(N)(=O)=O)cc3)sc2c1` in this assay?
Result: inactive

Ask: Assay result, entry `CCOC(=O)/C=C1\S/C(=N\Nc2ccc([N+](=O)[O-])cc2[N+](=O)[O-])N(Cc2ccccc2)C1=O` — outcome?
Result: inactive

---

tested on: NCI-H322M lung; experiment: NCI-60 one-dose screen, 48 h (100 = growth as untreated, 0 = no growth, -100 = all killed); conditions: 10 µM unless noted
This is part of a sample that, as a whole, favours compounds with a hit. Of some 83,000 tested, about 20% had one in any assay.
Classify as follows. Reported growth greater than or equal to 90%: YES. Reported growth below: NO.

Worked set:
Molecule	Class assignment
OC(COc1ccccc1)CN1CCN(c2ccc(Cl)cc2)CC1 (centres undefined)	YES
Cc1ccc2c(n1)C(=O)C(Cl)=C(Nc1ccccc1C(C)C)C2=O	NO
Cc1nc2ccccc2n1-c1ncnc2c1CC(C)c1ccccc1N2C (centres undefined)	YES
COc1ccc(/C=C2\Oc3cc(OCCN4CCC(Cc5ccccc5)CC4)ccc3C2=O)cc1OC	YES
CCc1nnc(NC(=O)c2nnn(-c3ccccc3)c2-c2ccco2)s1	YES
CC(C)OC(=O)Nc1ccc(-c2nc(-c3cccc(OCCN4CCOCC4)c3)c(-c3ccnc(Br)c3)[nH]2)cc1	NO

Ask: Please tell me: is the molecule `O=C(/C=C/c1sc(Cl)nc1Cl)c1ccc(Br)cc1` at or over 90% in terms of growth?
Result: YES

Ask: Threshold query (growth >= 90%) on `NC1CCN(c2nc(Nc3cccc(C(F)(F)F)c3)c3c(=O)[nH]ccc3n2)CC1`
Result: NO

Ask: Test whether the molecule `CN1CCN(c2ccc(-c3ccc4ncc(C#N)c(Nc5ccc(F)c(Cl)c5)c4c3)cc2)CC1` records growth of 90% or higher.
Result: NO

---

system: UACC-257 melanoma; assay: NCI-60 one-dose screen, 48 h (100 = growth as untreated, 0 = no growth, -100 = all killed); conditions: 10 µM unless noted
This is part of a sample that, as a whole, favours compounds with a hit. Of some 83,000 tested, about 20% had one in any assay.
Recorded growth for the following compounds
Reply numerically in %, unit not repeated.

Some entries whose results are on file:
Compound	Measured number
COc1ccc(C2C(C#N)=C(N)Oc3c2sc2c(C)cccc32)cc1 (stereo not given)	72.1
Cc1ccc2c(-c3cc(-c4ccccc4)nc(N)c3C#N)cc(=O)oc2c1	101
CCS(=O)(=O)c1ncnc2nc[nH]c12	93.1
COc1ccc2sc3c(NCCCN(C)C)nc4ccccc4c3c(=O)c2c1	76.7
COc1cc(C(=O)c2cc(C)c3[nH]c4ccc(C)cc4c3c2C)cc(OC)c1OC	68.8
COc1cc(C(=O)c2cc(C)c3[nH]c4ccc(O)cc4c3c2C)cc(OC)c1OC	64.8

For this compound ( `O=c1c2cc(F)ccc2sc2c(N3CCNCC3)nc3ccc(F)cc3c12` ), measured growth is 96.3

Just so you know, measured growth for `O=C(N/N=C/[C@H](O)[C@H](O)[C@H](O)CO)c1ccc(NC(=O)c2cccnc2)cc1` came out at 99.8

The compound listed as `CCOC(=O)Nc1ccc(-c2nc(-c3cccc(OC)c3)c(-c3ccnc(Br)c3)[nH]2)cc1` has a reported growth of 56.1

What the record says about `c1ccc2c(c1)Nc1ccncc1S2` : growth is 108
